Measurement Notes: Inhibition of TNF-alpha/IFN-gamma/IL-1beta-induced human CXCL10 (972 bp) promoter activity expressed in human DLD1 cells after 24 hrs by luciferase reporter assay
Assay type: cell-based
Conditions: DLD-1, 24 h
Property: IC50 (µM)
Return type: number; implicit unit µM.

INSERT INTO assay_data (compound, property, quantity_unit, experimental_value) VALUES
  ('CCCCCC(=O)O[C@@H]1C=C2COC(=O)[C@]2(O)[C@@]2(C)[C@H](O)CCC(C)(C)[C@H]12', 'IC50', 'µM', 55);

Here is another compound to look at.
Look at this compound and give its reported IC50. CCCCCC(=O)O[C@@H]1C=C2COC(=O)C2(O)[C@@]2(C)CCCC(C)(C)[C@H]12 (some centres not stated)
12.4
